Where do the numbers come from? From ChEMBL document CHEMBL1133817.

test system: Canis familiaris; assay: Area under curve by intravenous administration at a dose of 1 uM/kg in dog was determined; assay type: ADME, organism-based, Canis lupus familiaris; conditions: in vivo
Assay readout: AUC (ng·h/mL)

{"columns": ["Compound", "Assay readout", "Measurement"],
 "data": [
  ["CN(C[C@@H](CCN1CCC(c2ccccc2[S@+](C)[O-])CC1)c1ccc(Cl)c(Cl)c1)C(=O)c1cc(C#N)cc2ccccc12 (stereo in doubt)", "AUC", 1100]
]}

----------
test: Maximum concentration by oral administration at a dose of 100 umol/kg in rat was determined; format: ADME, organism-based; parameters: dose 100 umol/kg, route oral; conditions: in vivo

{"columns": ["Molecule", "Cmax (ng/mL)"],
 "data": [
  ["CN(C[C@@H](CCN1CCC(c2ccccc2[S@+](C)[O-])CC1)c1ccc(Cl)c(Cl)c1)C(=O)c1cc(C#N)cc2ccccc12 (stereo in doubt)", 421]
]}
